Origin of measurements: PubChem BioAssay (NCI)

// reported TGI for each item listed
# Tested on: SF-539 CNS
# assayOverview: NCI tumour cell line growth inhibition, 48 h

O=C(NCc1ccc(Cl)cc1Cl)c1ccc(NC2=C(Cl)C(=O)N(Cc3ccccc3)C2=O)cc1: 39.1 µM
CN1C(=O)CC2CCCN2C1=O (stereo not given): > 100 µM

[in] Looking for the measured TGI of N#CC(/C(CCCC(=O)Nc1cccc([N+](=O)[O-])c1)=N/NC(=O)c1cc2ccccc2cc1O)c1ccccc1 (stereo not given) , can you help?
[out] 72.5 µM

###

# System: MCF7 breast
# assayOverview: NCI tumour cell line growth inhibition, 48 h
Entries and their measured TGI follow.

Answered cases to consult:
CCOP(=O)(O)C(Nc1ccc(N=Nc2ccccc2)cc1)c1ccc(C(Nc2ccc(N=Nc3ccccc3)cc2)P(=O)(O)OCC)cc1 (stereo not given): > 100 µM
C=C1OC(=O)[C@]2([C@@H](/C=C/C)C=CC(=O)[C@H]2O)[C@@H]1O: > 100 µM
O=C(O)c1cccc2cccc(-c3c4ccc(=O)cc-4oc4cc(O)ccc34)c12: > 100 µM
O=C(Nc1cccc(-n2cc(-c3ccncc3)c(-c3ccc(Cl)c(O)c3)n2)c1)Nc1ccc(Cl)c(C(F)(F)F)c1: 32.5 µM

[in] For the record CN(C)CCC=C1c2ccccc2C=Cc2ccccc21 , what value of TGI is listed for MCF7 breast?
[out] 29.9 µM

[in] GET /values?readout=TGI&system=MCF7 breast&item= Cc1cc2ncn(C3CCCO3)c2cc1C (stereo not given)
[out] > 100 µM

###

# System: SK-MEL-5 melanoma
# assayOverview: NCI tumour cell line growth inhibition, 48 h
resultType: TGI (µM)
Give the value in µM but do not write µM after it.

[in] Item under review: CCOC(=O)C1(O)C(=O)C2=C3C(=O)OC(C4OC(=O)c5c(c(O)c(O)c(O)c5C31)-c1c(cc(O)c(O)c1O)C(=O)OC1COC(=O)c3cc(O)c(O)c(O)c3-c3c(cc(O)c(O)c3O)C(=O)OC14)[C@@H]2O (some centres undefined) . Reported TGI?
[out] 27.8

[in] Entry CC(C)=CCc1c(O)c(CC=C(C)C)c2oc(-c3ccc(O)cc3O)c(CC=C(C)C)c(=O)c2c1O : reported TGI = ?
[out] 23

[in] Please report the recorded TGI for CC1=NN(c2nc(N)nc(C(C#N)C(=O)c3cc4c(cc3Cl)Sc3nccn3S4(=O)=O)n2)C(C)(C)C1 (centres undefined) .
[out] 48.1

[in] Fill blank: measured TGI of the molecule CC(=O)C1=C(c2ccccc2)N(C2OC(CO)C(O)C(O)C2O)C(S)=C(C#N)C1c1ccc(Cl)cc1 (centres undefined) is ____.
[out] 34.9

[in] Give the measured TGI of O=C1Nc2cc(Cl)ccc2/C1=C\c1c(-c2ccc(F)cc2)nc2ccccn12 .
[out] 2.04

[in] I am curious: what TGI value has been reported for Nc1nc(/C=C\c2ccc([N+](=O)[O-])cc2)nc(N2CCN(c3ccccc3)CC2)n1 ?
[out] 33.1

[in] Returns the measured TGI for the input molecule. Input: CC12CCC(C(Br)(Br)C1=O)C2(C)C (centres undefined)
[out] 4.74

[in] Which TGI value is on record for CCc1ccc(CNCC(O)c2ccccc2)cc1 (centres undefined) ?
[out] 29.2

[in] Report TGI for O=C1CN2C(Cl)(Cl)C2(c2ccccc2)c2cc(Cl)ccc2N1CC1CC1 (centres undefined) please.
[out] 35.7

###

Measured TGI of individual entries
# System: T-47D breast
# assayOverview: NCI tumour cell line growth inhibition, 48 h
Report the value in µM with no unit label.

Use these answered entries as a reference point.
CCCC1C(CC)C(NC)C(C#N)(C#N)C1(C#N)C#N (stereo not given): 29
O=C(Oc1ccc(S(=O)(=O)F)cc1F)c1ccccc1Cl: 84.3
CCn1cc(C(=O)O)c(=O)c2cc(F)c(N3CCN(S(=O)(=O)c4ccc(Cl)cc4)CC3)cc21: 14.3
CCN1CCN(c2cc(C)nc(N(CCNc3ccnc4cc(Cl)ccc34)Cc3ccc4c(c3)OCO4)n2)CC1: 4.96
CC(=O)C1=C(c2ccccc2)N(C2OC(CO)C(O)C(O)C2O)C(S)=C(C#N)C1c1ccc(Cl)cc1 (stereo not given): 40.4

[in] Any idea what its TGI is? The compound is COc1cc(NCCCCCN=C(N)N)c2ncccc2c1
[out] 6.98

[in] I have this compound here, O=C1C=CC(=O)N1C1CCCCCCCCCCC1 , and I need its recorded TGI.
[out] 11.3

[in] What does the record list as TGI for CN1CCN(CCCOc2ccc3nc(Nc4cc(Cl)cc(Cl)c4)ccc3c2)CC1 ?
[out] 4.39

[in] # lookup: TGI of C#C[C@]1(O)CC[C@H]2[C@@H]3CCC4=CC(=NCCOC(=O)c5cccc6c(=O)c7ccccc7[nH]c56)CC[C@@H]4[C@H]3CC[C@@]21C
[out] 78.1

###

# System: NCI-H23 lung
# assayOverview: NCI tumour cell line growth inhibition, 48 h
Reported TGI is given for each of the following compounds.

COP(=O)(OC)/C(=C/c1c[nH]c2ccccc12)C(=O)O: > 100 µM

[in] Lab request: please report TGI under test system NCI-H23 lung for Cc1cc(S(=O)(=O)n2ccnc2Oc2cccc(Cl)c2)c(SSc2cc(Cl)c(C)cc2S(=O)(=O)n2ccnc2Oc2cccc(Cl)c2)cc1Cl
[out] > 100 µM

[in] Requested read-out TGI, target or system NCI-H23 lung, entry COc1ccc(/C=C2\C(=O)N(C(=O)c3ccc(NC(C)=O)cc3)N=C2C)cc1
[out] > 100 µM

[in] Form entry - test system: NCI-H23 lung; read-out: TGI; compound: C#C[C@]1(O)CC[C@H]2[C@@H]3CCC4=CC(=NCCOC(=O)c5cccc6c(=O)c7ccccc7[nH]c56)CC[C@@H]4[C@H]3CC[C@@]21C
[out] > 100 µM

###

# System: MOLT-4 leukemia
# assayOverview: NCI tumour cell line growth inhibition, 48 h
*1 amine or outer side, *2 acyl side, *3 side chain or, on linkers, in order; H or OH if unused. Where a SMILES comes first, the peptide text is derived from it. Bridges are numbered along the chain shown (N, C = ends). [ ]: non-standard residue; d: D form. Adda = CO[C@@H](Cc1ccccc1)[C@@H](C)/C=C(C)/C=C/[C@H](N[*:1])[C@H](C)C(=O)[*:2]; dAsp(3S-Me) = C[C@H](C(=O)[*:3])[C@@H](N[*:1])C(=O)[*:2]; d(γGlu) = O=C(O)[C@@H](CCC(=O)[*:2])N[*:1]; NMeDha = C=C(NC)C(=O)O
resultType: GI50

CCCCN1CCN(c2ccc3nc(-c4ccc5nc(-c6ccc(OC)c(OC)c6)[nH]c5c4)[nH]c3c2)CC1: 0.903 µM
C=C1C(=O)N[C@H](C)C(=O)N[C@@H](CC(C)C)C(=O)N[C@@H](C(=O)O)[C@H](C)C(=O)N[C@@H](CCCN=C(N)N)C(=O)N[C@@H](/C=C/C(C)=C/[C@H](C)[C@H](Cc2ccccc2)OC)[C@H](C)C(=O)N[C@@H](C(=O)O)CCC(=O)N1C (R[Adda][d(γGlu)][NMeDha][dA]L[dAsp(3S-Me)]-OH; lactam N-7): > 5 µM
O=C(/C=C/c1ccc(Cl)cc1)/C=C/c1cc2ccccc2[nH]c1=O: 3.82 µM
CCc1ccc(CNCC(O)c2ccccc2)cc1 (centres undefined): 21.8 µM
Fc1cnc(NC2CC2)nc1-c1cnc2ccc(N3CCOCC3)cn12: 0.346 µM
CCOC(=O)[C@H]1O[C@@H]1C(=O)N[C@@H](CC(C)C)C(=O)NCCc1ccc(O)cc1: > 100 µM
CN1CCc2c(c3ccccc3c3ccccc23)C1: 3.78 µM
O=C(NCc1ccc(Cl)cc1Cl)c1ccc(NC2=C(Cl)C(=O)N(Cc3ccccc3)C2=O)cc1: 7.17 µM

Okay, next one:
[in] Returns the measured GI50 for the input compound. Input: COc1ccc(C(=O)c2cc(OC)c3c(c2)OCO3)cc1O
[out] 0.617 µM

###

# Test system: ACHN renal
# assayOverview: NCI tumour cell line growth inhibition, 48 h
TGI values, listed per item

The examples below pair each entry with its known result.
Cc1cc(NS(=O)(=O)c2ccc(NC(=O)c3cccn4c(=O)c5ccccc5nc34)cc2)no1: > 100 µM
CC(=O)[CH-]C(C)=O.CC(=O)[CH-]C(C)=O.CC(=O)[CH-]C(C)=O.[In+3]: > 100 µM
O=[N+]([O-])c1ccc(C2=NN(c3ccccc3)C[N+](c3ccc(Br)cc3)=N2)cc1: > 100 µM
COc1ccc(C(N)=O)c(OC)c1OCc1ccccc1: > 100 µM
C/C1=C\[C@H](C)C[C@H](C)OC(=O)C[C@H](c2ccc(O)cc2)NC(=O)[C@H](Cc2ccc(O)c(I)c2)N(C)C(=O)[C@H](C)NC(=O)[C@@H](C)C1: > 25 µM
Nc1ccc2c(c1)C(=O)N(OS(=O)(=O)c1ccccc1)C2=O: > 100 µM
C=C1OC(=O)[C@]2([C@@H](/C=C/C)C=CC(=O)[C@H]2O)[C@@H]1O: > 100 µM
Cc1cc2[nH]c(Cl)c(/C=C3\C(=O)Nc4ccccc43)c2cc1O: 21.6 µM

[in] What measured TGI is associated with CCOC(=O)Nn1c(C)nnc1CC#N on ACHN renal?
[out] > 100 µM

[in] API: value(readout=TGI, system=ACHN renal) for record C/C(=N\O)c1ccc(Nc2nc3ccccc3c3occc23)cc1
[out] 47.7 µM
